Assay: PAMPA (parallel artificial membrane permeability assay)
Assay type: in vitro ADME
Conditions: PAMPA, pH 6.5
Protocol: 4 μL of a phospholipid-organic solvent solution composed of 10% (w/v) of egg lecithin, 0.5% (w/v) of cholesterol and dodecane (all purchased from Fluka) was added to a Millipore 96-well membrane filter (hydrophobic PVDF (polyvinylidene difluoride), pore size 0.45 microm) (purchased from Millipore Japan) to make an artificial phospholipid membrane. […]
Starred links: 1 amine or outer side, 2 acyl side, 3 side chain; linkers in the order of their positions; H or OH if unused. Positions of bridges follow the written chain, without caps; N, C: chain ends. Non-standard residues stand in square brackets, D forms with d. Residues, ends and D or L forms follow the SMILES beside them. *: point of attachment. NMeF = CN[C@@H](Cc1ccccc1)C(=O)O; NMeI = CC[C@H](C)[C@H](NC)C(=O)O; NMeβAla = CN(CCC(=O)[*:2])[*:1]; Aoc(2) = CCCCCC[C@H](N)C(=O)O; NMeL = CN[C@@H](CC(C)C)C(=O)O; NMeV = CN[C@H](C(=O)O)C(C)C; NMeA = CN[C@@H](C)C(=O)O; Piperidide = C1CCN(*)CC1; dNMeA = CN[C@H](C)C(=O)O; β3hA = C[C@H](N)CC(=O)O; Sar = CNCC(=O)O
Threshold check on Papp at 18 hours, 50 µM: at or above 20 ×10⁻⁶ cm/s gives Criterion met, strictly below gives Criterion not met.

Solved cases below.
compound	assigned class
CC[C@H](C)[C@H]1C(=O)N(C)CC(=O)N(C)[C@@H](Cc2ccccc2)C(=O)N[C@H](C(=O)N2CCCCC2)CC(=O)N(C)CCC(=O)N(C)[C@@H](C(C)C)C(=O)N(C)[C@@H](CC(C)C)C(=O)N[C@@H](CC(C)C)C(=O)N[C@@H]([C@@H](C)O)C(=O)N(C)[C@@H](C)C(=O)N[C@@H](Cc2ccccc2)C(=O)N1C [DP-68] ([NMeβAla][NMeV][NMeL]LT[NMeA]F[NMeI][Sar][NMeF]D-Piperidide; lactam N-11)	Criterion met
CC(C)C[C@H]1C(=O)N(C)[C@@H](Cc2ccccc2)C(=O)N(C)[C@@H](Cc2ccccc2)C(=O)NCC(=O)N(C)[C@@H](C)C(=O)N[C@@H]([C@@H](C)O)C(=O)N[C@H](C(=O)N(C)[C@@H](Cc2ccccc2)C(=O)N(C)[C@@H](Cc2ccccc2)C(=O)N[C@@H](C)C(=O)N2CCCCC2)CC(=O)N(C)[C@@H](C)C(=O)N[C@@H](C(C)C)C(=O)N1C [DP-309] ([NMeA]V[NMeL][NMeF][NMeF]G[NMeA]TD[NMeF][NMeF]A-Piperidide; lactam N-9)	Criterion met
CCCCCC[C@@H]1NC(=O)[C@H](CC(C)C)N(C)C(=O)[C@@H]2CCCN2C(=O)[C@H](C)N(C)C(=O)[C@H](Cc2ccccc2)N(C)C(=O)[C@H](Cc2ccccc2)N(C)C(=O)CN(C)C(=O)[C@H]([C@@H](C)O)NC(=O)[C@H](C)N(C)C(=O)C[C@H](C)NC(=O)[C@H](C(C)C)N(C)C1=O [DP-774] (cyclo([Aoc(2)][NMeV][β3hA][NMeA]T[Sar][NMeF][NMeF][NMeA]P[NMeL]))	Criterion met
CC(C)C[C@H]1C(=O)N[C@@H]([C@@H](C)O)C(=O)N(C)[C@@H](Cc2ccccc2)C(=O)N(C)[C@@H](CC(C)C)C(=O)NCC(=O)N(C)[C@@H](C(C)C)C(=O)N[C@@H](Cc2ccccc2)C(=O)N[C@H](C(=O)N(C)[C@@H](Cc2ccccc2)C(=O)N[C@@H](C)C(=O)N2CCCCC2)CC(=O)N(C)[C@H](C)C(=O)N[C@@H](C(C)C)C(=O)N1C [DP-301] ([dNMeA]V[NMeL]T[NMeF][NMeL]G[NMeV]FD[NMeF]A-Piperidide; lactam N-10)	Criterion not met
CC[C@H](C)[C@H]1C(=O)N[C@@H](C)C(=O)N[C@H](C(=O)N2CCCCC2)CC(=O)N(C)[C@@H](C)C(=O)N[C@@H]([C@@H](C)O)C(=O)N(C)[C@@H](C)C(=O)N(C)[C@@H](C(C)C)C(=O)N[C@@H](Cc2ccccc2)C(=O)N(C)CC(=O)N(C)[C@@H](CC(C)C)C(=O)N1C [DP-73] ([NMeA]T[NMeA][NMeV]F[Sar][NMeL][NMeI]AD-Piperidide; lactam N-10)	Criterion not met
CC[C@H](C)[C@H]1C(=O)NCC(=O)N(C)[C@@H](Cc2ccccc2)C(=O)N[C@@H]([C@@H](C)O)C(=O)N(C)[C@@H](C)C(=O)N[C@@H](CC(C)C)C(=O)N[C@H](C(=O)N2CCCCC2)CC(=O)N(C)[C@H](C)C(=O)N(C)[C@@H](C)C(=O)N[C@@H](Cc2ccccc2)C(=O)N(C)[C@@H](CC(C)C)C(=O)N[C@@H](C(C)C)C(=O)N1C [DP-93] ([dNMeA][NMeA]F[NMeL]V[NMeI]G[NMeF]T[NMeA]LD-Piperidide; lactam N-12)	Criterion met
CC[C@H](C)[C@H]1C(=O)N[C@H](C(=O)N2CCCCC2)CC(=O)N(C)CC(=O)N(C)[C@@H](CC(C)C)C(=O)N[C@@H](C)C(=O)N(C)[C@@H](CC(C)C)C(=O)N(C)[C@@H](Cc2ccccc2)C(=O)N(C)[C@@H](CC(C)C)C(=O)N(C)[C@@H](Cc2ccccc2)C(=O)N[C@@H]([C@@H](C)O)C(=O)N(C)[C@@H](C)C(=O)N1C [DP-70] ([Sar][NMeL]A[NMeL][NMeF][NMeL][NMeF]T[NMeA][NMeI]D-Piperidide; lactam N-11)	Criterion met
CC[C@H](C)[C@@H]1NC(=O)[C@H](C)N(C)C(=O)[C@H](CC(C)C)N(C)C(=O)CCN(C)C(=O)C[C@@H](C(=O)N(C)[C@@H](Cc2ccccc2)C(=O)N[C@@H](C)C(=O)N2CCCCC2)NC(=O)[C@H](CC(C)C)N(C)C(=O)[C@H](Cc2ccccc2)N(C)C(=O)[C@H](Cc2ccccc2)N(C)C(=O)[C@H](C)N(C)C(=O)[C@H]([C@@H](C)O)NC(=O)[C@H](CC(C)C)N(C)C1=O [DP-281] ([NMeβAla][NMeL][NMeA]I[NMeL]T[NMeA][NMeF][NMeF][NMeL]D[NMeF]A-Piperidide; lactam N-11)	Criterion not met

Next, consider the following compound.
In plain terms: is recorded Papp at 18 hours, 50 µM at least 20 ×10⁻⁶ cm/s for CC(C)C[C@H]1C(=O)NCC(=O)N[C@H](C(=O)N(C)[C@@H](Cc2ccccc2)C(=O)N(C)[C@@H](Cc2ccccc2)C(=O)N[C@@H](C)C(=O)N2CCCCC2)CC(=O)N[C@@H](C)C(=O)N[C@@H]([C@@H](C)O)C(=O)N(C)[C@@H](C)C(=O)N(C)[C@@H](Cc2ccccc2)C(=O)N[C@@H](C(C)C)C(=O)N(C)[C@@H](Cc2ccccc2)C(=O)N1C [DP-396] (AT[NMeA][NMeF]V[NMeF][NMeL]GD[NMeF][NMeF]A-Piperidide; lactam N-9) ?
Criterion met

* * *

Assay: PAMPA (parallel artificial membrane permeability assay)
Assay type: in vitro ADME
Conditions: PAMPA; membrane permeation rate (Pe); 50 mM MOPSO buffer pH 6.5 with 5.0% glycocholic acid, 37° C., 18 hours; read-out: iPAMPA Pe
Starred links: 1 amine or outer side, 2 acyl side, 3 side chain; linkers in the order of their positions; H or OH if unused. Positions of bridges follow the written chain, without caps; N, C: chain ends. Non-standard residues stand in square brackets, D forms with d. Residues, ends and D or L forms follow the SMILES beside them. *: point of attachment. NMeF = CN[C@@H](Cc1ccccc1)C(=O)O; NMeGABA = CN(CCCC(=O)[*:2])[*:1]; NMeL = CN[C@@H](CC(C)C)C(=O)O; NMeA = CN[C@@H](C)C(=O)O; Piperidide = C1CCN(*)CC1
parameter measured: Papp at 18 hours, 50 µM (×10⁻⁶ cm/s)
All answers are understood in ×10⁻⁶ cm/s, so give the number only.

So what does the record say about Papp at 18 hours, 50 µM for CC[C@H](C)[C@@H]1NC(=O)[C@H](CC(C)C)N(C)C(=O)[C@H](Cc2ccccc2)N(C)C(=O)[C@H]([C@@H](C)O)NC(=O)[C@H](C)N(C)C(=O)CCCN(C)C(=O)C[C@@H](C(=O)N(C)[C@@H](Cc2ccccc2)C(=O)N[C@@H](C)C(=O)N2CCCCC2)NC(=O)[C@H](CC(C)C)N(C)C(=O)[C@H](Cc2ccccc2)N(C)C(=O)[C@H](CC(C)C)N(C)C1=O [DP-373] ([NMeGABA][NMeA]T[NMeF][NMeL]I[NMeL][NMeF][NMeL]D[NMeF]A-Piperidide; lactam N-10) ?
9.2
